B1: SMARCE1 (parent)
chain: YHNSPAYLAYINAKSRAEAALEEE

variants of: B1; experiment: protein stability index of a GFP-peptide fusion (GPS, HEK-293T) (PSI 1-6); higher = more stable; details: c terminus: a fixed tail appended;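 note: lentivirally expressed fusions sorted by FACS into six bins by GFP to DsRed ratio, PSI derived from sequencing read proportions per bin multiplied by bin number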
Each entry below lists one item and its recorded protein stability index value.
Lab note: jot down the number only; don't add units.

Examples with answers:
- YLNSPAYLAYINAKSRAEAALEEE [H2L]: 2.09
- YHNSPAYLAYINAKSRAEAALIEE [E22I]: 2.59
- YHNSPAYLAYVNAKSRAEAALEEE [I11V]: 2.33
- YHNSPAYLAYINAKSRASAALEEE [E18S]: 2
- YHNSPAYLAYINAKSRAEASLEEE [A20S]: 1.84

For YHNSPAYLAYIYAKSRAEAALEEE [N12Y] the variant record lists protein stability index as 2.23
